We begin with pIC50 values for RORc (Homo sapiens, UniProt P51449), as collected from the published literature.
pIC50: −log10 of the molar value.
Parameter: pIC50

Here's what some known entries look like.
Looking up "Cc1noc(C[C@@]23CC[C@@H](c4cc(-c5c(F)cccc5F)nnc42)C3(C)C)n1" , I found its pIC50 recorded as 7.05

Looking up "CNC(=O)c1cncc(O[C@@]23CC[C@@H](c4cc(-c5c(F)cccc5F)nnc42)C3(C)C)n1" , I found its pIC50 recorded as 6.41

Looking up "Cc1coc(N2CCO[C@H]([C@@]34CC[C@@H](c5cc(-c6c(F)cccc6F)nnc53)C4(C)C)C2)n1" , I found its pIC50 recorded as 8.40

Looking up "C[C@@H](NC1(c2ccc(CN3[C@@H](C)CC[C@H](c4ccccc4)S3(=O)=O)c(F)c2)CCOCC1)C(N)=O" , I found its pIC50 recorded as 8.17

[a] CC(C)(C)OC(=O)N1CCC[C@@H](c2nccc([C@@]34CC[C@@H](c5cc(-c6c(F)cccc6F)nnc53)C4(C)C)n2)C1
[b] CC1(C)[C@H]2CC[C@]1(c1cccc(NS(=O)(=O)C3COC3)n1)c1nnc(-c3c(F)cccc3F)cc12
Would you let me know which has the greater pIC50 value, a or b ? # reply format: chosen label
a

====

We begin with IC50 values for RORc (Homo sapiens, UniProt P51449), as collected from the published literature.
Parameter: IC50 (nM)

Here's what some known entries look like.
"CC1(C)[C@H]2CC[C@]1(c1cncc(CO)n1)c1nnc(-c3c(F)cccc3F)cc12" on RORc (Homo sapiens, UniProt P51449) gives IC50 = 15.8

CC1(C)[C@@H]2CC[C@@]1(C(=O)N1CCCC1CO)c1nnc(-c3c(F)cccc3F)cc12 (stereo in doubt) on RORc (Homo sapiens, UniProt P51449) gives IC50 = 1130

[a] Cc1nnc(N(CCO)C[C@@]23CC[C@@H](c4cc(-c5c(F)cccc5F)nnc42)C3(C)C)o1
[b] C[C@H]1CC[C@H](c2ccccc2)S(=O)(=O)N1Cc1cc(F)c(C2(C(N)=O)CC(CC#N)C2)cc1F (stereo partly shown)
Record comparison, field IC50: mark the lower of a and b . # reply format: chosen label
b

====

We begin with IC50 values for RORc (Homo sapiens), as collected from the published literature.
Parameter: IC50 (nM)

Looking up CC(CO)NC(=O)N1CCO[C@H]([C@@]23CC[C@@H](c4cc(-c5c(F)cccc5F)nnc42)C3(C)C)C1 (stereo in doubt) , I found its IC50 recorded as 9.5

[P] CC(NC(=O)c1ccno1)c1cc(F)c(CN2[C@@H](C)CC[C@H](c3ccccc3)S2(=O)=O)cc1F (stereo in doubt)
[Q] CC1(C)[C@H]2CC[C@]1(C(N)=O)c1nnc(-c3c(F)cccc3F)cc12
Record comparison, field IC50: mark the lower of P and Q . # reply format: chosen label
P
(P: 11 nM, Q: 1460 nM)

====

pIC50: −log10 of the molar value.
We begin with pIC50 values for RORc (Homo sapiens, UniProt P51449), as collected from the published literature.
Parameter: pIC50

Here's what some known entries look like.
Looking up "C[C@@H](O)CNC(=O)c1cncc([C@]23CC[C@H](c4cc(-c5c(F)cccc5F)nnc42)C3(C)C)n1" , I found its pIC50 recorded as 7.70

Looking up "CC[C@@H](O[C@@]12CC[C@@H](c3cc(-c4c(F)cccc4F)nnc31)C2(C)C)C(=O)NC[C@H](C)O" , I found its pIC50 recorded as 7.21

[A] CC(C)CN(Cc1ccc(-c2cccc(S(C)(=O)=O)c2)s1)S(=O)(=O)c1cccc(Cl)c1
[B] C[C@H](O)CNC(=O)c1cccc([C@]23CC[C@H](c4cc(-c5c(F)cccc5F)nnc42)C3(C)C)n1
Would you let me know which has the greater pIC50 value, A or B ? # reply format: chosen label
B
(B: 7.38, A: 6.73)

====

We begin with IC50 values for RORc (Homo sapiens), as collected from the published literature.
Parameter: IC50 (nM)

Looking up "CC(C)CN(c1ccc(F)cc1)S(=O)(=O)c1ccc(C(=O)N2CCN(S(C)(=O)=O)CC2)cc1" , I found its IC50 recorded as 299

[A] Cc1nc([C@@]23CC[C@@H](c4cc(-c5c(F)cccc5F)nnc42)C3(C)C)no1
[B] C[C@H]1CC[C@H](c2ccccc2)S(=O)(=O)N1Cc1cc(F)c(C2(C(=O)NCC#N)CC2)cc1F
[C] CC1(C)[C@H]2CC[C@]1(c1cncc(-c3nc(C(=O)NCCO)co3)n1)c1nnc(-c3c(F)cccc3F)cc12
[D] CC(=O)N1CCN(c2ccc(CN3[C@@H](C)CCC(c4cccnc4)S3(=O)=O)c(F)c2)CC1 (single isomer, unassigned)
Arrange these compounds by their IC50, starting with the largest number. I would appreciate it if you listed the labels in the requested order.
D, B, A, C
(D: 870 nM, B: 390 nM, A: 136 nM, C: 10.1 nM)

====

We begin with IC50 values for RORc (Homo sapiens, UniProt P51449), as collected from the published literature.
Parameter: IC50 (nM)

Looking up "CC(C)CN(Cc1ccccc1)S(=O)(=O)c1ccc(-c2ccc(C(N)=O)cc2)cc1" , I found its IC50 recorded as 124

Looking up "C[C@H]1CC[C@H](c2ccccc2)S(=O)(=O)N1Cc1ccc(OCC2(C#N)CCOCC2)cc1F" , I found its IC50 recorded as 220

Looking up "C[C@H]1CC[C@H](c2ccccc2)S(=O)(=O)N1Cc1ccc(C2(C(N)=O)CCC3(CC2)OCCO3)cc1F" , I found its IC50 recorded as 30

[P] CC(=O)N1CC(OCC(O)CO)(c2cc(F)c(CN3[C@@H](C)CC[C@H](c4ccccc4)S3(=O)=O)cc2F)C1 (some centres unmarked)
[Q] CC1(C)[C@H]2CC[C@]1(c1cccc(-c3nc(CCO)n[nH]3)n1)c1nnc(-c3c(F)cccc3F)cc12
[R] CC(=O)N1CCN(c2ccc(CN3[C@@H](C)CCC(c4ccccn4)S3(=O)=O)c(F)c2)CC1 (single isomer, unassigned)
[S] CC(=O)N1CC(OCC(=O)O)(c2cc(F)c(CN3[C@@H](C)CC[C@H](c4ccccc4)S3(=O)=O)cc2F)C1
Arrange these molecules by their IC50, starting with the largest number. I would appreciate it if you listed the labels in the requested order.
R, Q, P, S
(R: 825 nM, Q: 73.5 nM, P: 29.8 nM, S: 17.2 nM)

====

We begin with pIC50 values for RORc (Homo sapiens), as collected from the published literature.
pIC50: −log10 of the molar value.
Parameter: pIC50

Looking up "CC1(C)[C@H]2CC[C@]1(c1cncc(C(=O)NC3(CO)COC3)n1)c1nnc(-c3c(F)cccc3F)cc12" , I found its pIC50 recorded as 7.30

[I] COC(=O)C1(c2cc(F)c(CN3[C@@H](C)CC[C@H](c4ccccc4)S3(=O)=O)cc2F)CCC(=O)CC1
[II] C[C@H]1CCC(c2ccccc2)S(=O)(=O)N1Cc1ccc(C2(C(=O)O)CCOCC2)cc1 (stereo partly shown)
[III] C[C@H]1CC[C@H](c2ccccc2)S(=O)(=O)N1Cc1cc(F)c([C@H](OC2COC2)C(N)=O)cc1F
[IV] CNC(=O)CCC1(c2ccc(CN3[C@@H](C)CC[C@H](c4ccccc4)S3(=O)=O)c(F)c2)CCOCC1
Arrange these compounds by their pIC50, starting with the largest number. I would appreciate it if you listed the labels in the requested order.
I, IV, III, II
(I: 8.21, IV: 7.83, III: 7.46, II: 5.36)

====

We begin with IC50 values for RORc (Homo sapiens), as collected from the published literature.
Parameter: IC50 (µM)

Looking up "Cc1ncnn1-c1ncc(F)c([C@@]23CC[C@@H](c4cc(-c5c(F)cccc5F)nnc42)C3(C)C)n1" , I found its IC50 recorded as 0.0335

[P] COC(=O)C1CN(C(=O)[C@@]23CC[C@@H](c4cc(-c5c(F)cccc5F)nnc42)C3(C)C)C1
[Q] CC1(C)[C@H]2CC[C@]1(c1nccc(C(=O)NCCO)n1)c1nnc(-c3c(F)cccc3F)cc12
Would you let me know which has the greater IC50 value, P or Q ? # reply format: chosen label
P

[I] Cc1cc(-c2ccc(S(C)(=O)=O)cc2)ccc1CN(CC(C)C)S(=O)(=O)Cc1ccccc1
[II] CC1(C)[C@H]2CC[C@]1([C@@H]1CN(C(=O)c3c[nH]c(=O)cn3)CCO1)c1nnc(-c3c(F)cccc3F)cc12
Would you let me know which has the greater IC50 value, I or II ? # reply format: chosen label
I
(I: 0.057 µM, II: 0.011 µM)

[A] CC1(C)[C@H]2CC[C@]1(C)c1nnc(Oc3ccccc3F)cc12
[B] CC[C@H](O)c1n[nH]c(-c2cncc([C@@]34CC[C@@H](c5cc(-c6c(F)cccc6F)nnc53)C4(C)C)n2)n1
Would you let me know which has the greater IC50 value, A or B ? # reply format: chosen label
A
(A: 0.6 µM, B: 0.0152 µM)
